test system: SK-MEL-28 melanoma; experiment: NCI-60 one-dose screen, 48 h; details: 10 µM unless noted
The panel holds about 83,000 compounds, 20% with a hit somewhere; the sample as a whole holds those more often. Activity calls are given as the source filed them. Rule for the calls: active = growth percent below 10; inactive = the rest.
Your answer must be one of the following: yes (1) for active, no (0) for inactive

Worked examples follow.
INSERT INTO measurements (compound, categorylabel) VALUES
  ('COC(=O)CSC1=C(C)C(=O)C(OC)=C(OC)C1=O', 'no (0)'),
  ('Cc1ccc2c(c1)nc(-c1ccccc1)n2CC(=O)N=Nc1c(O)[nH]c2ccc(Cl)cc12', 'yes (1)'),
  ('Cc1ccc(C(=O)C[n+]2cccc3c4ccccc4ccc32)cc1', 'no (0)'),
  ('S=C(Nc1ccccc1)Nc1ccc(OCc2nc3ccc(Cl)cc3[nH]2)cc1', 'no (0)'),
  ('O=C1Nc2ccccc2/C1=C\c1ccc(OCC(=O)c2ccc(Br)cc2)cc1', 'no (0)'),
  ('COc1ccc(-n2c(NC(=O)N3CCN(C)CC3)c(C#N)c3ccccc32)cc1', 'no (0)'),
  ('COc1ccc(NC(=O)CSc2nnc(-c3ccc(-c4nc5ccccc5[nH]4)cc3)o2)cc1', 'yes (1)'),
  ('C=CCn1c(O)c(N=Nc2nc(-c3cc4ccccc4oc3=O)cs2)c2ccccc21', 'no (0)'),
  ('CC(=O)c1ccc2c(N)c(C(=O)Nc3ccc(C(F)(F)F)cc3)sc2n1', 'no (0)'),
  ('COC(=O)c1cccc(Oc2ccc(NC(=O)Nc3cc(C(F)(F)F)ccc3F)cc2)c1', 'no (0)');

Prompt line: # fetch the recorded call for `O=C(Cn1c(/C=C/c2ccc([N+](=O)[O-])cc2)nc2ccccc2c1=O)Nc1ccccc1` here
Response line: no (0)

Prompt line: # fetch the recorded call for `O=C(Cc1c(-c2cccc([N+](=O)[O-])c2)n(-c2ncnc3c2c(-c2ccccc2)c(-c2ccccc2)n3Cc2ccccc2)[nH]c1=O)c1ccc(Cl)c(Cl)c1` here
Response line: no (0)

Prompt line: # fetch the recorded call for `O=C(N/N=C/c1ccc(-c2cccc([N+](=O)[O-])c2)s1)c1[nH]c2ccc(Br)cc2c1-c1ccccc1` here
Response line: no (0)

Prompt line: # fetch the recorded call for `COc1ccc2oc(=O)c(-c3csc(N/N=C(\C)c4cc(OC)c(OC)c(OC)c4)n3)cc2c1` here
Response line: no (0)

Prompt line: # fetch the recorded call for Fc1ccc(F)c(CNc2nc(SCCN3CCOCC3)nc3c2cnn3CC(Cl)c2ccc(Br)cc2)c1 (stereo not drawn) here
Response line: no (0)
